Target: HLA-B15
Assay: REVEAL MHC-peptide binding
Binary label based on % of positive control with cut-off 10%: below gives Y, not below gives N.

**Q:** I'd appreciate it if you could check whether P[Cit]IGVRAT[Cit] (peptide) has % of positive control smaller than 10%.
**A:** N

**Q:** I'd appreciate it if you could check whether [Nle]GYIPLIGA (peptide) has % of positive control smaller than 10%.
**A:** N

Shift focus to the following entry.
**Q:** I'd appreciate it if you could check whether [Cit]IGVRAT[Cit]R (peptide) has % of positive control smaller than 10%.
**A:** N

====

Target: HLA-B8
Experiment: REVEAL MHC-peptide binding
For each entry below, report its % of positive control value.
Numbers only, in %.

Some solved cases for reference:
**Q:** Give % of positive control for the following substance: GP[Cit]IGVRAT (peptide)
**A:** 9.99

**Q:** Give % of positive control for the following substance: P[Cit]IGVRAT[Cit] (peptide)
**A:** 9.47

Okay, here is my list. What is % of positive control for each of these?
1. EL[Nle]GYIPLI (peptide)
2. L[Nle]GYIPLIG (peptide)
3. [Cit]IGVRAT[Cit]R (peptide)
4. [Nle]GYIPLIGA (peptide)

**A:**
1. 17.1
2. 17.3
3. 12.1
4. 21.4

====

Biological target: HLA-A24
Assay: REVEAL MHC-peptide binding
Threshold check on % of positive control: at or above 0.7% gives true (1), strictly below gives false (0).

**Q:** Confirm if % of positive control reported for the substance GP[Cit]IGVRAT (peptide) is 0.7% or above.
**A:** false (0)

**Q:** Confirm if % of positive control reported for the substance EL[Nle]GYIPLI (peptide) is 0.7% or above.
**A:** true (1)

**Q:** Confirm if % of positive control reported for the substance P[Cit]IGVRAT[Cit] (peptide) is 0.7% or above.
**A:** false (0)

**Q:** Confirm if % of positive control reported for the substance [Cit]IGVRAT[Cit]R (peptide) is 0.7% or above.
**A:** false (0)

---
**Q:** Confirm if % of positive control reported for the substance [Nle]GYIPLIGA (peptide) is 0.7% or above.
**A:** true (1)

====

For each entry below, report its % of positive control value.
Target: HLA-B14
Experiment: REVEAL MHC-peptide binding
Give bare numbers, in %.

Some solved cases for reference:
**Q:** Under HLA-B14: report % of positive control of GP[Cit]IGVRAT (peptide) .
**A:** 0.13

**Q:** Under HLA-B14: report % of positive control of [Nle]GYIPLIGA (peptide) .
**A:** 0.29

**Q:** Under HLA-B14: report % of positive control of [Cit]IGVRAT[Cit]R (peptide) .
**A:** 0.17

**Q:** Under HLA-B14: report % of positive control of L[Nle]GYIPLIG (peptide) .
**A:** 0.15

Okay, here is my list. What is % of positive control for each of these?
1. EL[Nle]GYIPLI (peptide)
2. P[Cit]IGVRAT[Cit] (peptide)

**A:**
1: 0.14; 2: 0.19

====

Molecular target: HLA-A11
Experiment: REVEAL MHC-peptide binding
MEASURED_ENDPOINT: % of positive control (%)
Answers are plain numbers, in %.

**Q:** Give % of positive control for the following substance: GP[Cit]IGVRAT (peptide)
**A:** 2.72

**Q:** Give % of positive control for the following substance: P[Cit]IGVRAT[Cit] (peptide)
**A:** 1.72

**Q:** Give % of positive control for the following substance: EL[Nle]GYIPLI (peptide)
**A:** 3.21

**Q:** Give % of positive control for the following substance: [Cit]IGVRAT[Cit]R (peptide)
**A:** 8.27

**Q:** Give % of positive control for the following substance: [Nle]GYIPLIGA (peptide)
**A:** 7.27

Let us move to another entry and its % of positive control.
**Q:** Give % of positive control for the following substance: L[Nle]GYIPLIG (peptide)
**A:** 2.48
